Test system: Heliothis zea
Test: Sterol utilization and metabolism by Heliothis zea reared on artificial diet with sterol supplement
Settings: Table 11; insect tissues, RP-HPLC and GC-MS
Measure name: Sterol composition (as % total sterol): ts (%)
Unit % implied. Number only.

Examples with their reported Sterol composition (as % total sterol): ts follow.
# get_value(readout='Sterol composition (as % total sterol): ts', item= CCC(=CC[C@@H](C)[C@H]1CC[C@H]2[C@@H]3CC=C4CC(O)CC[C@]4(C)[C@H]3CC[C@]12C)C(C)C (stereo partly drawn) [24-Ethyl cholesta-5,23-dienol] )
86

Name the reported Sterol composition (as % total sterol): ts value associated with the molecule C/C=C(\CC[C@@H](C)[C@H]1CC[C@H]2[C@@H]3CC=C4C[C@@H](O)CC[C@]4(C)[C@H]3CC[C@]12C)C(C)C [Fucosterol]
10

Please look up its Sterol composition (as % total sterol): ts: CCC(/C=C/C(C)C1CCC2C3CC=C4CC(O)CCC4(C)C3CCC12C)C(C)C (stereo not drawn) [Stigmasterol, stigmasterol]
15

Look up Sterol composition (as % total sterol): ts: C/C=C(/CCC(C)C1CCC2C3CC=C4CC(O)CCC4(C)C3CCC12C)C(C)C (stereo not drawn) [Isofucosterol]
8

Name the recorded Sterol composition (as % total sterol): ts for CC(C)[C@@H](C)/C=C/[C@@H](C)[C@H]1CC[C@H]2C3=CC=C4C[C@@H](O)CC[C@]4(C)[C@H]3CC[C@]12C [Ergosterol] .
36

Let's switch to this molecule now.
# Sterol composition (as % total sterol): ts lookup, item CCC(CCC(C)C1CCC2C3CC=C4CC(O)CCC4(C)C3CCC12C)C(C)C (stereo not drawn) [Sitosterol, sitosterol]
20

* * *

Tested on: (S)-adenosyl-L-methionine: Δ^24-sterol methyl transferase (SMT)
Experiment: Sterol specificity (substrate methylation) of SMT enzyme from 4-day corn seedlings
Assay type: biochemical, Zea mays (corn)
Settings: soluble SMT; (C1), first methyl transfer
Reported values of % Activity, relative to cycloartenol methylation for individual entries

Recall the recorded % Activity, relative to cycloartenol methylation for CC(C)=CCC[C@@H](C)[C@H]1CC[C@@]2(C)[C@@H]3CC[C@H]4C(C)(C)[C@@H](O)CC[C@@]45C[C@@]35CC[C@]12C with (S)-adenosyl-L-methionine: Δ^24-sterol methyl transferase (SMT) and state it.
100 (C1) %

Item CC(C)=CCC[C@@H](C)[C@H]1CC[C@@]2(C)[C@@H]3CC[C@H]4C[C@@H](O)CC[C@@]45C[C@@]35CC[C@]12C [24-Dehydropollinstanol] with (S)-adenosyl-L-methionine: Δ^24-sterol methyl transferase (SMT) - % Activity, relative to cycloartenol methylation?
22 (C1) %

Which % Activity, relative to cycloartenol methylation is reported with (S)-adenosyl-L-methionine: Δ^24-sterol methyl transferase (SMT) for this entry: CC(C)=CCC[C@@H](C)[C@H]1CC[C@H]2C3=C(CC[C@]12C)[C@@]1(C)CCCCC1CC3 (stereo partly drawn) ?
0 (C1) %

* * *

System: (S)-adenosyl-L-methionine: Δ^24-sterol methyl transferase (SMT)
Test: Sterol specificity (substrate methylation) of SMT enzyme from 4-day corn seedlings
Type: biochemical, Zea mays (corn)
Settings: soluble SMT; (C1), first methyl transfer
Recorded measurements of % Activity, relative to cycloartenol methylation, one per entry

Reported % Activity, relative to cycloartenol methylation, molecule CC(C)=CCC[C@@H](C)[C@H]1CC[C@H]2C3=C(CC[C@]12C)[C@@]1(C)CC[C@H](O)[C@@H](C)[C@@H]1CC3 [4α-Methylzymosterol] : ____
28 (C1) %

Name the reported % Activity, relative to cycloartenol methylation value associated with the molecule CC(C)=CCCC(C)C1CC[C@@]2(C)C3=C(CCC12C)C1(C)CCC(O)CC1CC3 (stereo partly drawn) [14α-Methylzymosterol]
9 (C1) %

Looking for the measured % Activity, relative to cycloartenol methylation of CC(C)CCC[C@@H](C)[C@H]1CC[C@H]2C3=C(CC[C@]12C)[C@@]1(C)CCC(O)CC1CC3 (stereo partly shown) [Cholest-8-enol] , can you help?
0 (C1) %

Now consider the entry below.
Suppose we examine the molecule CC(C)=CCC[C@@H](C)[C@H]1CC[C@@]2(C)[C@@H]3CC[C@H]4[C@H](C)[C@@H](O)CC[C@@]45C[C@@]35CC[C@]12C [31-Norcycloartenol] ; what % Activity, relative to cycloartenol methylation value has been reported?
50 (C1) %
